Kindly state Emax for each of the entries shown.
subject-of-test: recombinant human Meningioma Expressed Antigen 5 (MGEA5), also referred to as O-GlcNAcase (OGA) (Homo sapiens, UniProt O60502)
Construct: Full length OGA enzyme was purchased at OriGene (cat #TP322411); purchased OriGene TP322411
Sequence (O60502 whole entry): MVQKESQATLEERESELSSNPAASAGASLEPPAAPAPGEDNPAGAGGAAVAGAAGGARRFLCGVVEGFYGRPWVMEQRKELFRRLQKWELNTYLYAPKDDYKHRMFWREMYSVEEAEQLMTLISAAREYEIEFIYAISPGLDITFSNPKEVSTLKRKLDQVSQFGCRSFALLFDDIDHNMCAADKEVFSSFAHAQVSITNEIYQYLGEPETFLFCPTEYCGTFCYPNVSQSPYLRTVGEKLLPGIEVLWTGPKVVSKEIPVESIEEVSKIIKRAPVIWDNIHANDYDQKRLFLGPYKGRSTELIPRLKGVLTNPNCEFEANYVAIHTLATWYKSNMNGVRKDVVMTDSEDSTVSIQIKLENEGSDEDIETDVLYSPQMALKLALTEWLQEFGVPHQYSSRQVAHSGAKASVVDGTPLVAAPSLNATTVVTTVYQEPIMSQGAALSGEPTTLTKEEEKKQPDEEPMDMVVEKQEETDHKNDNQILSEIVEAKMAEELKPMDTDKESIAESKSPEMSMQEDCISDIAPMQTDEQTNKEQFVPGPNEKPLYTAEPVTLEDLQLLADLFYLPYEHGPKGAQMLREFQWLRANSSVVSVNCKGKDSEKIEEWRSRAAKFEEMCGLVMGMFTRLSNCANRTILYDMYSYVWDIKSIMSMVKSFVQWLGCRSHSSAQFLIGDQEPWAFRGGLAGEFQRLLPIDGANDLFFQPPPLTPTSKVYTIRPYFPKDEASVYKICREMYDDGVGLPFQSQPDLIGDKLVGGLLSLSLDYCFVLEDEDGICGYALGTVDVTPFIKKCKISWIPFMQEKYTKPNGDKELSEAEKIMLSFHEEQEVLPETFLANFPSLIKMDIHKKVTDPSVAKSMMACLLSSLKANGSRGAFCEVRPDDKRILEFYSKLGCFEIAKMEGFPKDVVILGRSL
protocol-description: OGA biochemical assay (inhibition of FM-GlcNAc hydrolysis, fluorescence)
settings: read-out: Enzymatic Emax (%)
Give just the number in %; leave the unit off.

[in] What value of measured Emax is listed for Cc1cc(OC2CCN([C@H](C)c3nc4c(cc3F)OCCO4)CC2)cc(C)n1 (single isomer, unassigned) ?
[out] 98

[in] Similarly, Cc1cc(OC2CCN([C@H](C)c3ccc4c(n3)OCC4)CC2)cc(C)n1 (single isomer, unassigned) ?
[out] 95

[in] Try Cc1cc(OC2CCN(C(C)c3ccc4sc(C)nc4n3)CC2)c(Cl)c(C)n1 (stereo not shown) next.
[out] 99

[in] Now give it for Cc1cc(OC2CCN(C(C)c3nc4c(cc3F)OCCO4)CC2)ccn1 (stereo not shown) too.
[out] 98

[in] Now give it for Cc1cc(OC2CCN(C(C)c3nc4c(cc3F)OCCO4)CC2)cc(C)n1 (stereo not shown) too.
[out] 99

[in] Now try CC(c1ccc2c(n1)OCCO2)N1CCC(Oc2cnc(Cl)c(F)c2)CC1 (stereo not shown) .
[out] 95

[in] Subsequent entry: COc1cc(OC2CCN(C(C)c3nc4nc(C)sc4cc3F)CC2)cc(C)n1 (stereo not shown)
[out] 101

[in] Another molecule to check: Cc1cc(OC2CCN(C(C)c3nc4c(cc3F)OCCO4)CC2)cc(C(F)F)n1 (stereo not shown)
[out] 96

[in] Follow-up item: CC(c1ccc2c(n1)OCCO2)N1CCC(Oc2ncc(F)cc2F)CC1 (stereo not shown)
[out] 96

[in] Next up: Cc1cc(OC2CCN([C@@H](C)c3nc4c(cc3F)OCCO4)CC2)cc(C)n1 (single isomer, unassigned)
[out] 58

[in] What do we get for Cc1cc(OC2CCN(C(C)c3ccc4sc(C)nc4n3)CC2)cc(C(F)(F)F)n1 (stereo not shown) ?
[out] 101

[in] Please do the same for CC(c1ccc2c(n1)OCCO2)N1CCC(Oc2ccncc2C#N)CC1 (stereo not shown) as well.
[out] 95

[in] Continue with CC(c1ccc2c(n1)OCCO2)N1CCC(Oc2cnc(C3CCC3)nc2)CC1 (stereo not shown)
[out] 92

[in] Now the molecule Cc1cc(OC2CCN(C(C)c3cnc4sc(C)nc4c3)CC2)cc(C)n1 (stereo not shown)
[out] 101

[in] What about this molecule? Cc1cccc(OC2CCN(C(C)c3ccc4c(n3)OCCO4)CC2)n1 (stereo not shown)
[out] 98

[in] What would you report for Cc1cnc(OC2CCN(C(C)c3nc4c(cc3F)OCCO4)CC2)cc1C (stereo not shown) ?
[out] 94

[in] // next record Cc1ncc(COC2CCN(C(C)c3nc4c(cc3F)OCCO4)CC2)cn1 (stereo not shown) [Compound 135]
[out] 97

[in] Queued: COc1cc(OC2CCN(C(C)c3nc4c(cc3F)OCCO4)CC2)cc(C)n1 (stereo not shown)
[out] 102

[in] # repeat for CC(c1ccc2c(n1)OCCO2)N1CCC(Oc2cnc(C3CC3)nc2)CC1 (stereo not shown)
[out] 98

[in] Note, next up: Cc1cc(OC2CCN([C@H](C)c3nc4c(cc3F)CCO4)CC2)cc(C)n1 (single isomer, unassigned) [Compound 143]
[out] 99

[in] Repeat with Cc1ncc(OC2CCN(C(C)c3nc4c(cc3F)OCCO4)CC2)nc1C (stereo not shown)
[out] 101

[in] // same read-out, input: Cc1cc(COC2CCN(C(C)c3nc4nc(C)sc4cc3F)CC2)cc(C)n1 (stereo not shown)
[out] 96

[in] For "C[C@@H](c1ccc2c(n1)OCCO2)N1CCC(Oc2ccc(C#N)nn2)CC1" then?
[out] 96

[in] Now try COc1cc(OC2CCN(C(C)c3ccc4c(n3)OCCO4)CC2)ncc1C#N (stereo not shown) .
[out] 97

[in] Now this one: Cc1ccnc(OC2CCN(C(C)c3nc4c(cc3F)OCCO4)CC2)c1 (stereo not shown)
[out] 97

[in] Try this molecule too: Cc1cc(OC2CCN(C(C)c3nc4c(cc3F)OCCO4)CC2)c(Cl)c(C)n1 (stereo not shown)
[out] 99

[in] Further, for C[C@@H](c1nc2c(cc1F)OCCO2)N1CCC(Oc2ccc(C#N)nn2)CC1 (single isomer, unassigned) ?
[out] 94

[in] // same read-out, input: Cc1cc(OC2CCN(C(C)c3ccc4c(n3)OCCO4)CC2)nc(C)n1 (stereo not shown) [Compound 9]
[out] 102

[in] How about COc1cc(OC2CCN([C@@H](C)c3nc4nc(C)sc4cc3F)CC2)cc(C)n1 (single isomer, unassigned) ?
[out] 93

[in] Same read-out for CC(c1nc2c(cc1F)OCCO2)N1CCC(Oc2ccc(C#N)nn2)CC1 (stereo not shown) ?
[out] 97

[in] Quick one: CC(c1nc2c(cc1F)OCCO2)N1CCC(Oc2ccc(C3CC3)nc2)CC1 (stereo not shown)
[out] 96

[in] Next record, please: CC(c1ccc2c(n1)OCCO2)N1CCC(Oc2cncc(F)c2)CC1 (stereo not shown)
[out] 99

[in] One more molecule: Cc1ncc(OC2CCN(C(C)c3ccc4c(n3)OCCC4)CC2)cn1.Cl (stereo not shown)
[out] 95

[in] Same question, Cc1cc(CC2(F)CCN(C(C)c3ccc4c(n3)OCCO4)CC2)cc(C)n1 (stereo not shown) this time
[out] 90
